Source of measurements: patent US20100035363A1

# study.target: T1, biotin-labeled RSV-IQN51 (Respiratory Syncytial Virus (F1 part), biotin label (position not stated in the example); captured on streptavidin-allophycocyanin in the assay)
# T1 construct: Synthetic peptide; In the assay it was pre-mixed with streptavidin-APC (final 100 nM IQN51-biotin, 10 nM streptavidin-APC); also called IQN51-biotin; IQN51-APC
# test.protocol: time-resolved FRET competition, IQN51-APC/C39-Eu assay; competitor C39-Eu
reported.property: IC50 (nM)
Enter your answer as a number in nM; do not include the unit.

*Q* Provide measured IC50 value, entry: NFYDPLVFPSDEFDASISQVNEKINQSLAFIRKSDELLHNVNAGK [RSV-C45]
*A* 76

*Q* Give IC50 for the following binder: VFPSDEFDASISQVNEKINQSLAFIRKSDELLHNVNAGK [RSV-C39]
*A* 76
